# STUDY_SYSTEM: HLA-B*5401 (human)
# MEASUREMENT_NOTES: competition vs 125I-labelled probe peptide, purified HLA, gel filtration
pIC50: −log10 of the molar value.
Below, each entry is listed alongside its reported pIC50.

BINDER	pIC50
FPSETDGYI [Her2/neu.1120.F1I9]	6.81
FPLDSTFYRSL (11-mer analog of the HER2/neu peptide starting at position 998) [Her2/neu.998.F1]	8.57
FPLPAARPI (9-mer analog of the HER2/neu peptide starting at position 1155) [Her2/neu.1155.F1I9]	8.42
FPLAPSEGI (9-mer analog of the HER2/neu peptide starting at position 1073) [Her2/neu.1073.F1I9]	8.23
